These measurements were taken from a melting point compilation (Tetko et al.).

Conditions: a range is the spread between reports
measurement.type: melting point

Illustrative cases are given below, each with its answer.
CCNc1ccc([N+](=O)[O-])cc1	96 to 97 °C
CCOC(=O)c1ccc(C(=O)OCC)cc1	44 to 45 °C
O=P(O)(O)CP(=O)(O)O	200 to 203 °C
OCC(CO)(CO)COCC(CO)(CO)CO	217 to 221 °C
Cc1cccc([N+](=O)[O-])c1	15.5 to 16 °C
Cc1ccc2c(c1[N+](=O)[O-])C(=O)c1ccccc1C2=O	268 to 270 °C
O=C(O)COc1ccc(Cl)cc1	159 to 164 °C
CCCCOC(=O)CCC	-92 to -91.5 °C
Cc1ccc(S(=O)(=O)NC2CCCCC2)cc1	84.5 to 88 °C
O=S=O	-73 to -72 °C

Incoming: Please give the measured melting point for this molecule: CC(C)(O)C(C)(C)O
Outgoing: 43 to 44 °C

Incoming: Please give the measured melting point for this molecule: N#Cc1ccccc1O
Outgoing: 93.5 to 98 °C

Incoming: Please give the measured melting point for this molecule: COc1ccc(N)cc1
Outgoing: 57 to 59 °C

Incoming: Please give the measured melting point for this molecule: COC=O
Outgoing: -100 to -99 °C

Incoming: Please give the measured melting point for this molecule: COc1ccc(I)cc1
Outgoing: 50 to 53 °C

====

# Lookup of reported melting point keyed by entry
Details: a range is the spread between reports

Illustrative cases are given below, each with its answer.
Cc1cc(Cl)c(C)cc1Cl	68 to 71 °C
O=C(O)Cc1c(Cl)cccc1Cl	159 to 160 °C
Fc1cc(F)cc(F)c1	-6 to -5.5 °C

Incoming: Please give the measured melting point for this molecule: CCOc1ccccc1OCC
Outgoing: 43 to 44 °C

Incoming: Please give the measured melting point for this molecule: Nc1cc(Cl)c(O)c(Cl)c1
Outgoing: 167 to 168 °C

Incoming: Please give the measured melting point for this molecule: CNC(=O)NC(C)=O
Outgoing: 178 to 180 °C

====

Details: a range is the spread between reports
measurement.type: melting point

Incoming: Please give the measured melting point for this molecule: C=Cc1ccccc1C
Outgoing: -69 to -68.5 °C

Incoming: Please give the measured melting point for this molecule: COc1ccccc1OC(=O)Oc1ccccc1OC
Outgoing: 87 to 89 °C

Incoming: Please give the measured melting point for this molecule: c1ccc(Cn2ccnc2)cc1
Outgoing: 69 to 71 °C

Incoming: Please give the measured melting point for this molecule: CCOCCOC(C)=O
Outgoing: -62 to -61 °C

Incoming: Please give the measured melting point for this molecule: CCCCCCCC(C)O (stereo unspecified)
Outgoing: -35.5 to -35 °C

Incoming: Please give the measured melting point for this molecule: COc1ccc(O)cc1
Outgoing: 55 to 57 °C

====

Settings: a range is the spread between reports
# Lookup of reported melting point keyed by entry

Illustrative cases are given below, each with its answer.
O=Cc1ccc(C(=O)O)cc1	245 to 247 °C
CCCCCCCCCCc1ccccc1	-14.4 to -14 °C
Clc1cc(Cl)c(Cl)cc1Cl	139 to 140 °C
O=[N+]([O-])c1ccc(Cl)c(Cl)c1	39 to 43 °C
C#C	-80.8 to -80.7 °C
CCCCCCCCCCCCCC(=O)OCC	12 to 12.3 °C
O=C(O)c1c(Cl)cc(Cl)cc1Cl	162 to 163 °C
CN(C)Cc1cc(C(C)(C)C)c(O)c(C(C)(C)C)c1	91 to 93.5 °C
O=Cc1cc(Cl)ccc1Cl	56 to 58 °C
O=[N+]([O-])c1ccccc1	5 to 6 °C

Incoming: Please give the measured melting point for this compound: CCCCCC(C)(C)O
Outgoing: -50.4 to -50 °C

Incoming: Please give the measured melting point for this compound: CN(C)c1ccc(C(=O)c2ccccc2)cc1
Outgoing: 89 to 92.5 °C

Incoming: Please give the measured melting point for this compound: CCCCCCCCCCCCCCCCCCCCCC(=O)O
Outgoing: 76 to 81 °C

Incoming: Please give the measured melting point for this compound: CCCCC(=O)CC
Outgoing: -39 to -37 °C

Incoming: Please give the measured melting point for this compound: CCC(C)(O)C#CC(C)(O)CC (configuration not stated)
Outgoing: 53 to 54 °C

Incoming: Please give the measured melting point for this compound: CCS
Outgoing: -148 °C

Incoming: Please give the measured melting point for this compound: CC(F)(F)Cl
Outgoing: -131 °C
